Reported pKi values for a set of compounds
# target or system: cathepsin D (Homo sapiens)
# Sequence (P07339 65-412, species assumed): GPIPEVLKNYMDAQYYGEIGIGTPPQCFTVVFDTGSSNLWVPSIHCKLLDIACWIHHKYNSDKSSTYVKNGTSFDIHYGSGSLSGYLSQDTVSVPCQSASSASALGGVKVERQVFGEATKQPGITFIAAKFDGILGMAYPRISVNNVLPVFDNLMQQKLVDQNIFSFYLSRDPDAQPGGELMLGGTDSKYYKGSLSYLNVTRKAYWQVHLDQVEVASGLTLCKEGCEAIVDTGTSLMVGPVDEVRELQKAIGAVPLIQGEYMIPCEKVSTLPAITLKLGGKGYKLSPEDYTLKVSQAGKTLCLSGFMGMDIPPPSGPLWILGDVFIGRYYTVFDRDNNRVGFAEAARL
# protocol description: Inhibition of cathepsin D activity (MALDI-TOF, substrate ELDLAVEFWHDR)
# Type: biochemical
# protocol conditions: substrate peptide ELDLAVEFWHDR, pH 4.1, 37 degrees C, read-out: CD Ki
# Protocol: [The source words this procedure for another target and reports this target under the same test.] A substrate peptide NH3-ELDLAVEFWHDR-CO2 (SEQ ID NO.: 1) was dissolved at 2 mg/mL in 10% glacial acetic acid and diluted into 0.009M NaOH to obtain μM concentration at pH 4.1. […] Ions with a mass-to-charge ratio (m/z) were detected in the range of 650-2000 atomic mass units. Data were analyzed by the Voyager Data Explorer module to obtain ion intensity data for mass species of substrates and corresponding products in a given mixture. […]
pKi: −log10 of the molar value.

{"smiles entry": "Cc1csc([C@H]2CCCN2C(=O)c2cc(C(=O)N[C@@H](Cc3ccccc3)[C@H](O)[C@H]3C[C@@H](Oc4ccccc4)CN3)cc(-c3ncco3)c2)n1", "pKi": "6.30 to 6.52"}

Then there is this compound:
I'm curious: which pKi was measured for Cc1csc([C@H]2CCCN2C(=O)c2cccc(C(=O)N[C@@H](Cc3ccccc3)[C@H](O)[C@H]3C[C@@H](Oc4ccccc4)CN3)c2)n1 tested on cathepsin D (Homo sapiens)?
< 6.30

====

# target or system: CYP3A4 (Homo sapiens, UniProt P08684)
# Construct: host or cells: human liver microsomes
# Sequence (P08684 whole entry): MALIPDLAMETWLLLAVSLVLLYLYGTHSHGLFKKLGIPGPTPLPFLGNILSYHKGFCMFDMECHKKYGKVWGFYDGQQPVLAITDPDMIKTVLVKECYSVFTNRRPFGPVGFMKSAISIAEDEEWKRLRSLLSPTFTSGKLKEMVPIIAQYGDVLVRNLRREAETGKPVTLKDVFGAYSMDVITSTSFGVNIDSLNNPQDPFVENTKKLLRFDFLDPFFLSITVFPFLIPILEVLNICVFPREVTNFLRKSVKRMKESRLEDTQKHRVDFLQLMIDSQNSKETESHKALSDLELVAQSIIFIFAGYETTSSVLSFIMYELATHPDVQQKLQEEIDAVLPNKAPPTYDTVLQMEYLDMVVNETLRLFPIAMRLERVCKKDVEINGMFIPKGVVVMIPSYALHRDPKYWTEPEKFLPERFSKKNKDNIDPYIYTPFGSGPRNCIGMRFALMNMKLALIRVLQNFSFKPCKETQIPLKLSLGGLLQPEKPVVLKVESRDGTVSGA
# protocol description: CYP3A4 inhibition (midazolam metabolism in human liver microsomes)
# Assay type: in vitro ADME
# protocol conditions: substrate midazolam, read-out: CYP 3A4Ki
pKi: −log10 of the molar value.
Reported pKi values for a set of molecules

# example entries with known answers
{"molecule": "Cc1csc([C@H]2CCCN2C(=O)c2cc(C(=O)N[C@@H](Cc3ccccc3)[C@H](O)[C@H]3CCCN3)cc(-n3cccc3)c2)n1 [1-16]", "target or system": "CYP3A4 (Homo sapiens, UniProt P08684)", "pKi": "5.30 to 6.00"}
{"molecule": "C[C@@H](NC(=O)c1cc(C(=O)N[C@@H](Cc2ccccc2)[C@H](O)[C@H]2CCCN2)cc(N(C)S(C)(=O)=O)c1)c1ccccc1 [1-11]", "target or system": "CYP3A4 (Homo sapiens, UniProt P08684)", "pKi": "< 5.00"}
{"molecule": "Cc1csc([C@H]2CCCN2C(=O)c2cc(C(=O)N[C@@H](Cc3ccccc3)[C@H](O)[C@H]3C[C@@H](OCc4ccccc4)CN3)cc(-c3ncco3)c2)n1 [1-52]", "target or system": "CYP3A4 (Homo sapiens, UniProt P08684)", "pKi": "5.30 to 6.00"}

Query: pKi; subject: Cc1coc([C@H]2CCCN2C(=O)c2cc(CF)cc(C(=O)N[C@@H](Cc3ccccc3)[C@H](O)CNCc3cccc(C(C)(C)C)c3)c2)n1 [2-7, reference compound]
5.30 to 6.00

Query: pKi; subject: Cc1csc([C@H]2CCCN2C(=O)c2cc(C(=O)N[C@@H](Cc3ccccc3)[C@H](O)CNCc3cncc(C(C)C)c3)cc(-c3ccco3)c2)n1 [2-2, reference compound]
> 6.00

Query: pKi; subject: Cc1coc([C@H]2CCCN2C(=O)c2cccc(C(=O)N[C@@H](Cc3ccccc3)[C@H](O)[C@H]3C[C@@H](OCc4ccccc4)CN3)c2)n1 [1-18]
< 5.00

Query: pKi; subject: Cc1csc([C@H]2CCCN2C(=O)c2cc(C(=O)N[C@@H](Cc3ccccc3)[C@H](O)[C@H]3CCCN3)cc(-c3ncco3)c2)n1 [1-19]
< 5.00

Query: pKi; subject: Cc1csc([C@H]2CCCN2C(=O)c2cccc(C(=O)N[C@@H](Cc3cc(F)cc(F)c3)[C@H](O)[C@H]3CCCN3)c2)n1 [1-44]
5.30 to 6.00
